- test.details: Area under curve was evaluated in rat at 3 mg/kg dose administered intravenously
- Type: ADME, organism-based
- Set-up: dose 3 mg/kg, route intravenous
- test.context: in vivo, iv
reported.endpoint: AUC (µM·h)

O=C(O)Cc1ccccc1OCCC1Oc2ccccc2N(CCCCCCO)C1=O (stereo not drawn) :: 2.5
O=C(O)Cc1ccccc1OCCC1Oc2ccccc2N(CCCCCCF)C1=O (stereo not drawn) :: 84
COCCCCN1C(=O)[C@@H](CCOc2ccccc2CC(=O)O)Oc2ccccc21 :: 88
C/C(CCCCN1C(=O)C(CCOc2ccccc2CC(=O)O)Oc2ccccc21)=N\O (stereo not drawn) :: 19.9

A. O=C(O)Cc1ccccc1OCC[C@H]1Oc2ccccc2N(CCCCCCF)C1=O
B. O=C(O)Cc1ccccc1OCCC1Oc2ccccc2N(CCCCCCCO)C1=O (stereo not drawn)
C. CCCCCCN1C(=O)[C@@H](CCOc2ccccc2CC(=O)O)Oc2ccccc21
D. CC(=O)CCCCN1C(=O)C(CCOc2ccccc2CC(=O)O)Oc2ccccc21 (stereo not drawn)
Ascending by AUC, please. Lab note: final answer is the ordered label list.
B, D, A, C
